- TARGET OF ASSAY: BACE1 endogenous to primary cortical neurons from E16.5 CD1 mice (mouse, UniProt P56818 46-501)
- Sequence (P56818 46-501): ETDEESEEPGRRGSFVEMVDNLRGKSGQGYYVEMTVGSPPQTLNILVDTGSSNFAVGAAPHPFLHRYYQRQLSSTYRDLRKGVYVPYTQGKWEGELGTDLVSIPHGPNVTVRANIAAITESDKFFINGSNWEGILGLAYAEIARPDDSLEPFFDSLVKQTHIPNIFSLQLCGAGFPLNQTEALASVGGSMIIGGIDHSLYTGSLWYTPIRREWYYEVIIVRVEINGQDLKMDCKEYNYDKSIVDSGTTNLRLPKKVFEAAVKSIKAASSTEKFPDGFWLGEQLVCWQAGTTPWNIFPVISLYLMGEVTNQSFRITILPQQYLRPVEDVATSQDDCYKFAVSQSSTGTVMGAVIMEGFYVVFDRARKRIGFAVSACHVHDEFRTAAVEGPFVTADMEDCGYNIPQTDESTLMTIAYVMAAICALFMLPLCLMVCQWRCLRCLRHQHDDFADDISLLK
- ASSAY SUMMARY: cell-based or functional assay
QUANTITY NAME: max % inhibition, Abeta x-40 in mouse cortical neurons (%)
Form entry: value (%) — number only.

Consider the following illustrative entries.
>  <BINDER>
6291 (antibody, V domains shown) VH: QLQLQESGPGLVKPSETLSLTCTVSGGSISSSSYYWGWIRQPPGKGLEWIGMIYYSGSTWYNPSLKSRVTISVDTSKNQFSLKLSSVTAADTAVYYCARVGHGVSYFDLWGRGTLVTVSS VL: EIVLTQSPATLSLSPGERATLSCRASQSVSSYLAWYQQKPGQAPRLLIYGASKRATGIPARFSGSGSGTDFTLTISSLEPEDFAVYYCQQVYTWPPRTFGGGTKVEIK

>  <RESULT NUMBER>
68

$$$$
>  <BINDER>
antibody 6266 (antibody, V domains shown) VH: EVQLVQSGAEVKKPGSSVKVSCKASGGTLSGYGVSWVRQAPGQGLEWMGNIIPGFGTANYAQKFQGRVTITADESTSTAYMELSSLRSEDTAVYYCARSGGTKYGMLDVWGQGTMVTVSS VL: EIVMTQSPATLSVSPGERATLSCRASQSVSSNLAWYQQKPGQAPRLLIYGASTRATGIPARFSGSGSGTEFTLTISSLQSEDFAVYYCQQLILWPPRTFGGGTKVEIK

>  <RESULT NUMBER>
87

$$$$

// switching to the query binder
## Task Assign max % inhibition, Abeta x-40 in mouse cortical neurons to the following record: 5983 (antibody, V domains shown) VH: QLQLQESGPGLVKPSETLSLTCTVSGGSISSSSYYWGWIRQPPGKGLEWIGNIYYSGSTYYNPSLRSRVTISVDTSKNQFFLKLSSVTAADTAVYYCARLGHGYNYFDLWGRGTLVTVSS VL: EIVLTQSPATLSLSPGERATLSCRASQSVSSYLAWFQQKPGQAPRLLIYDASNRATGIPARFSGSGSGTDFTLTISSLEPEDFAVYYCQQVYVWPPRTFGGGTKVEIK
## Result 72

src = patent US20210206877A1
